target: KRAS G12C (GMPPNP-loaded) and cRAF (Ras-binding domain) interaction (Homo sapiens (Human), UniProt P01116, C118S/C51S/C80L/G12C); assay: Inhibition of KRAS G12C and cRAF binding (AlphaScreen); conditions: KRAS G12C loaded with GMPPNP, cRaf RBD, 2 hours preincubation; read-out: Raf-1 RBD K-Ras IC50
Sequence (P01116 other isoform, or with tags, fused parts or gaps G12C/C51S/C80L/C118S): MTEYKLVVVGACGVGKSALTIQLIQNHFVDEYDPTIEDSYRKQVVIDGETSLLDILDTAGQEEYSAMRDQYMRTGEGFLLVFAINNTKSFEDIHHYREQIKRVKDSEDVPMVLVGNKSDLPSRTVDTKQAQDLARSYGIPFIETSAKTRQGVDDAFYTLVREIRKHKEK
metric: IC50

Worked examples, 5 compounds total:
{"item-smiles": "C[C@H]1CN(C/C=C/C(=O)N2CCN(c3nc(OC[C@@]45CCCN4C[C@H](F)C5)nc4c(F)c(-c5cccc6cccc(F)c56)ncc34)C[C@@H]2CC#N)C[C@H](C)O1", "IC50": "10 to 100 nM"}
{"item-smiles": "N#CC[C@H]1CN(c2nc(OCC34CCCN3CCC4)nc3c2CCN(c2cccc4cccc(Cl)c24)C3)CCN1C(=O)/C=C/c1cnccn1", "IC50": "> 500 nM"}
{"item-smiles": "C#Cc1c(F)ccc2cccc(-c3ncc4c(N5CCN(C(=O)/C=C/CN6CC7CC(C6)O7)[C@@H](CC#N)C5)nc(OC[C@@]56CCCN5C[C@H](F)C6)nc4c3F)c12", "IC50": "< 10 nM"}
{"item-smiles": "Cc1nccc(/C=C/C(=O)N2CCN(c3nc(OC[C@@]45CCCN4C[C@H](F)C5)nc4c(F)c(-c5cccc6ccc(F)c(C)c56)ncc34)C[C@@H]2CC#N)n1", "IC50": "< 10 nM"}
{"item-smiles": "C#Cc1c(F)ccc2cccc(-c3ncc4c(N5CCN(C(=O)/C=C/c6ccnc(C)n6)[C@@H](CC#N)C5)nc(OC[C@@]56CCCN5C[C@H](F)C6)nc4c3F)c12", "IC50": "< 10 nM"}

Value sought for every listed compound: IC50.
1. C[C@H]1CN(C/C=C/C(=O)N2CCN(c3nc(OC[C@@]45CCCN4C[C@H](F)C5)nc4c(F)c(-c5cccc(Cl)c5C5CC5)ncc34)C[C@@H]2CC#N)C[C@H](C)O1
2. N#CC[C@H]1CN(c2nc(OCC34CCCN3CCC4)nc3c(F)c(-c4cccc5cccc(Cl)c45)ncc23)CCN1C(=O)/C=C/CN1CCOCC1
3. CCO[C@@H]1CCN(C/C=C/C(=O)N2CCN(c3nc(OC[C@@]45CCCN4C[C@H](F)C5)nc4c(F)c(-c5cccc6cccc(Cl)c56)ncc34)C[C@@H]2CC#N)C1
4. N#CC[C@H]1CN(c2nc(OC[C@@]34CCCN3C[C@H](F)C4)nc3c2CCN(c2cccc4cccc(Cl)c24)C3)CCN1C(=O)/C=C/CN1CCOCC1
5. Cc1nccc(/C=C/C(=O)N2CCN(c3nc(OC[C@@]45CCCN4C[C@H](F)C5)nc4c(F)c(-c5cccc6ccc(F)c(F)c56)ncc34)C[C@@H]2CC#N)n1
6. C[C@H]1CN(C/C=C/C(=O)N2CCN(c3nc(OC[C@@]45CCCN4C[C@H](F)C5)nc4c(F)c(-c5cccc6ccc(F)c(F)c56)ncc34)C[C@@H]2CC#N)C[C@H](C)O1

1: < 10 nM; 2: 10 to 100 nM; 3: < 10 nM; 4: < 10 nM; 5: < 10 nM; 6: 10 to 100 nM

###

Give measured IC50 for each item. Keep answers brief.
Target: KRAS G12C (GMPPNP-loaded) and cRAF (Ras-binding domain) interaction (Homo sapiens (Human), UniProt P01116, C118S/C51S/C80L/G12C)
Assay: Inhibition of KRAS G12C and cRAF binding (AlphaScreen)
Details: KRAS G12C loaded with GMPPNP, cRaf RBD, 2 hours preincubation; read-out: Raf-1 RBD K-Ras IC50
Procedure: Compounds were diluted in 100% DMSO and each compound concentration was spotted at 200 nl/well onto low volume, white 384 well plates. […] KRAS G12C was preloaded with the GTP analogue Guanosine 5′-[β,γ-imido]triphosphate (GMPPNP). […] IC50S were determined using nonlinear regression fit of [inhibitor] vs. response (4 parameters). […]

Some molecules with recorded IC50:
{"molecule": "N#CC[C@H]1CN(c2nc(OCC34CCCN3CCC4)nc3c2CCN(c2cccc4cccc(Cl)c24)C3)CCN1C(=O)/C=C/CN1CCC(F)(F)CC1 [Compound 159]", "metric": "IC50", "value-reported": "< 10 nM"}
{"molecule": "N#CC[C@H]1CN(c2nc(OC[C@@]34CCCN3C[C@H](F)C4)nc3c(F)c(-c4cccc(F)c4C(F)(F)F)ncc23)CCN1C(=O)/C=C/CN1[C@@H]2CC[C@H]1COC2 [Compound 292]", "metric": "IC50", "value-reported": "< 10 nM"}
{"molecule": "N#CC[C@H]1CN(c2nc(OC[C@@]34CCCN3C[C@H](F)C4)nc3c(F)c(-c4ccccc4C4CC4)ncc23)CCN1C(=O)/C=C/CN1[C@@H]2CC[C@H]1COC2 [Compound 271]", "metric": "IC50", "value-reported": "10 to 100 nM"}
{"molecule": "N#CC[C@H]1CN(c2nc(OC[C@@]34CCCN3C[C@H](F)C4)nc3c(F)c(-c4cccc5cccc(Cl)c45)ncc23)CCN1C(=O)/C=C/CN1C2COCC1C2 [Compound 189]", "metric": "IC50", "value-reported": "< 10 nM"}

Need IC50, item Cc1c(Cl)cccc1-c1ncc2c(N3CCN(C(=O)/C=C/CN4[C@@H]5CC[C@H]4COC5)[C@@H](CC#N)C3)nc(OC[C@@]34CCCN3C[C@H](F)C4)nc2c1F [Compound 273]
< 10 nM
